# Assay Procedure: Toxicology study of VD in rats: 5-day continuous subcutaneous infusion by Alzet minipumps, plasma VD by radioimmunoassay, clinical observations
# Format: in vivo
# Run Parameters: female, Sprague Dawley, rat, in vivo, sc, 1.8 mg
Ends that are not written are not given here.

[
  {
    "Sequence Text": "EVVPPQVLSEPNEEAGAALSPLPEVPPWTGEVSPAQR [VD, Vessel Dilator]",
    "level at 8 h": "275 ng/mL"
  }
]

###

# Assay Procedure: Pharmacodynamic study of VD in canines: 10-day subcutaneous infusion in high-rate paced heart failure model
# Type: in vivo, canine
# Run Parameters: dog, plasma; Day 10 of continuous vessel dilator infusion 100 ng/kg·min SC; Day 0 0.66+/−0.37; read-out: Pre-proANF (56-92) plasma concentration (radioimmunoassay)
# Method: A pharmaceutical formulation of VD was prepared in a Tris buffer. 16.0 g glycerol, 6.05 g tris-(hydroxymethyl)-aminomethane (“Tris”), 2.50 g meta cresol were mixed in a 1.00 L volumetric flask. Approximately 900 mL nanopure water was added to the volumetric flask and the mixture was magnetically stirred to reach complete dissolution. 4 normal hydrochloric acid was used to adjust pH to 7.3 at 25° C. Then, the flask was filled to 1 L mark with nanopure water. […]
Ends that are not written are not given here.

[
  {
    "Sequence Text": "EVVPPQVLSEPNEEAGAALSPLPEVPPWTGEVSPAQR [VD, Vessel Dilator]",
    "level at 240 h / ng/mL": 41.1
  }
]

###

# Assay Procedure: Toxicology study of VD in rats: 5-day continuous subcutaneous infusion by Alzet minipumps, plasma VD by radioimmunoassay, clinical observations
# Assay type: in vivo
# Run Parameters: Sprague Dawley, rat, in vivo, sc, 0.18 mg; male rats N=3, 0.180 mg, 4 hours post-dosing (from start of infusion); read-out: Mean concentration of vessel dilator in plasma
Ends that are not written are not given here.
Measure Name: level at 4 h (ng/mL)

[
  {
    "Sequence Text": "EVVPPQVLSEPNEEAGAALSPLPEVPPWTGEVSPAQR [VD, Vessel Dilator]",
    "Measure Name": "level at 4 h",
    "Result Value": 17.1
  }
]

###

# Assay Procedure: Toxicology study of VD in canines: 5-day continuous subcutaneous infusion, plasma VD by radioimmunoassay, clinical observations
# Type: in vivo
# Run Parameters: beagle, dog, in vivo; female canine, 2.88 mg/(kg·day); maximum tolerated dose not determined; read-out: AUC that a maximum tolerated dose would exceed
Ends that are not written are not given here.
Measure Name: AUC

[
  {
    "Sequence Text": "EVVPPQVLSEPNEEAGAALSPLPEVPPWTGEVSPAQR [VD, Vessel Dilator]",
    "Measure Name": "AUC",
    "Result Value": "> 63300 ng·h/mL"
  }
]

###

# Assay Procedure: Toxicology study of VD in rats: 5-day continuous subcutaneous infusion by Alzet minipumps, plasma VD by radioimmunoassay, clinical observations
# Type: in vivo
# Run Parameters: Sprague Dawley, rat, in vivo, sc, 0.18 mg; male rats N=3, 0.180 mg, 120 hours post-dosing, all samples; read-out: Mean concentration of vessel dilator in plasma
Ends that are not written are not given here.

[
  {
    "Sequence Text": "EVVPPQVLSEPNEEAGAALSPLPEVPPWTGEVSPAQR [VD, Vessel Dilator]",
    "level at 120 h": "78.6 ng/mL"
  }
]

Origin of the recorded values: patent US9616107B2
